- Tested on: lymphocyte proliferation, cells from the thymus of normal BALB/c mice (PHA and IL-1)
- Method Summary: comitogen-induced thymocyte proliferation procedure (LAF)
- Assay type: cell-based
- Condition Details: ratio, thymocytes 72 hours with PHA and IL-1; rapamycin 1.0
Measure: LAF (ratio)
Numbers only.

Example cases with answers are listed next.
1) CO[C@H]1C[C@@H]2CC[C@@H](C)[C@@](OC(=O)CCC(=O)OCc3ccccc3)(O2)C(=O)C(=O)N2CCCC[C@H]2C(=O)O[C@H]([C@H](C)C[C@@H]2CC[C@@H](OC(=O)CCC(=O)OCc3ccccc3)[C@H](OC)C2)CC(=O)[C@H](C)/C=C(\C)[C@@H](OC(=O)CCC(=O)OCc2ccccc2)[C@@H](OC)C(=O)[C@H](C)C[C@H](C)/C=C/C=C/C=C/1C | 0.37
2) CO[C@H]1C[C@@H]2CC[C@@H](C)[C@@](O)(O2)C(=O)C(=O)N2CCCC[C@H]2C(=O)O[C@H]([C@H](C)C[C@@H]2CC[C@@H](OC(=O)CCCC(=O)O)[C@H](OC)C2)CC(=O)[C@H](C)/C=C(\C)[C@@H](OC(=O)CCCC(=O)O)[C@@H](OC)C(=O)[C@H](C)C[C@H](C)/C=C/C=C/C=C/1C [Example 6] | 0.01
3) CO[C@H]1C[C@@H]2CC[C@@H](C)[C@@](O)(O2)C(=O)C(=O)N2CCCC[C@H]2C(=O)O[C@H]([C@H](C)C[C@@H]2CC[C@@H](OC(=O)CCCC(=O)O)[C@H](OC)C2)CC(=O)[C@H](C)/C=C(\C)[C@@H](OC(=O)CCCC(=O)O)[C@@H](OC)C(=O)[C@H](C)C[C@H](C)/C=C/C=C/C=C/1C [Example 4, Rapamycin-31,42-bishemiglutarate] | 0.56
4) CO[C@H]1C[C@@H]2CC[C@@H](C)[C@@](O)(O2)C(=O)C(=O)N2CCCC[C@H]2C(=O)O[C@H]([C@H](C)C[C@@H]2CC[C@@H](OC(=O)CCC(=O)OCc3ccccc3)[C@H](OC)C2)CC(=O)[C@H](C)/C=C(\C)[C@@H](O)[C@@H](OC)C(=O)[C@H](C)C[C@H](C)/C=C/C=C/C=C/1C [Example 3, Rapamycin-42-(monobenzylsuccinate)] | 3.27

With those in mind, consider the next compound.
// query Consider the compound CO[C@H]1C[C@@H]2CC[C@@H](C)[C@@](O)(O2)C(=O)C(=O)N2CCCC[C@H]2C(=O)O[C@H]([C@H](C)C[C@@H]2CC[C@@H](OC(=O)CCC(=O)OCc3ccccc3)[C@H](OC)C2)CC(=O)[C@H](C)/C=C(\C)[C@@H](OC(=O)CCC(=O)OCc2ccccc2)[C@@H](OC)C(=O)[C@H](C)C[C@H](C)/C=C/C=C/C=C/1C [Example 2, Rapamycin-31,42-bis(monobenzylsuccinate)] and give its measured LAF (ratio).
// result 0.9

Entry source: patent US5378696A
